System: M14 melanoma
Assay: NCI-60 one-dose screen, 48 h (100 = growth as untreated, 0 = no growth, -100 = all killed)
Details: 10 µM unless noted
This is part of a sample that, as a whole, favours compounds with a hit. Of some 83,000 tested, about 20% had one in any assay.
Listed here are compounds together with their documented growth.
Kindly provide the numeric value in % only, without the unit symbol.

>  <compound>
O=C1/C(=C/c2cccs2)SC(=S)N1CCCN1CCOCC1

>  <target.of.assay>
M14 melanoma

>  <growth, %>
93.4

$$$$

Challenge: For M14 melanoma, give the measured growth of the entry Cn1ccnc1C(=O)C(=O)Nc1ccc(CC(=O)Nc2ccccc2)cc1
Response given: 104

Challenge: For M14 melanoma, give the measured growth of the entry COc1cccc(/C=C/C(=O)c2cc3c(N)c(C(=O)Nc4ccccc4)sc3nc2C)c1
Response given: 29.9
